Reference for the values: ChEMBL document CHEMBL4402510

Entries and their MIC
Test system: Mycolicibacterium smegmatis
Assay: Antibacterial activity against Mycobacterium smegmatis
Format: functional

# example entries with known answers
Exercise: Can you look up MIC on Mycolicibacterium smegmatis for `CCCCCCCCCCCCC[C@@H](CC(=O)O[C@H]1CN(C)[C@@H]([C@H](O[C@@H]2O[C@H](CN)[C@@H](O)[C@H]2O)[C@H]2O[C@@H](n3ccc(=O)[nH]c3=O)[C@H](O)[C@@H]2O)C(=O)N(C)[C@@H]1C(=O)O)OC(=O)C[C@H](C)CC(=O)O[C@@H]1O[C@@H](C)[C@H](OC)[C@@H](OC)[C@H]1OC` ?
Solution: 0.78 to 1.56 µg/mL

Exercise: What do you get for `CO[C@@H]1[C@@H](OC)[C@H](C)O[C@@H](OC(=O)C[C@@H](C)CC(=O)O[C@@H](CCCCCCCCCCC(C)C)CC(=O)O[C@H]2CN(C)[C@@H]([C@H](O[C@@H]3O[C@H](CN)[C@@H](O)[C@H]3O)[C@H]3O[C@@H](n4ccc(=O)[nH]c4=O)[C@H](O)[C@@H]3O)C(=O)N(C)[C@@H]2C(=O)O)[C@@H]1OC` ?
Solution: 1.56 to 3.13 µg/mL

Exercise: What do you get for `CCCCCCCCCCC[C@@H](CC(=O)O[C@H]1CN(C)[C@@H]([C@H](O[C@@H]2O[C@H](CN)[C@@H](O)[C@H]2O)[C@H]2O[C@@H](n3ccc(=O)[nH]c3=O)[C@H](O)[C@@H]2O)C(=O)N(C)[C@@H]1C(=O)O)OC(=O)C[C@H](C)CC(=O)O[C@@H]1O[C@@H](C)[C@H](OC)[C@@H](OC)[C@H]1OC` ?
Solution: 0.39 to 1.56 µg/mL

Exercise: What do you get for `CO[C@@H]1[C@@H](OC)[C@H](C)O[C@@H](OC(=O)C[C@@H](C)CC(=O)O[C@@H](CCCCCCCCC(C)C)CC(=O)O[C@H]2CN(C)[C@@H]([C@H](O[C@@H]3O[C@H](CN)[C@@H](O)[C@H]3O)[C@H]3O[C@@H](n4ccc(=O)[nH]c4=O)[C@H](O)[C@@H]3O)C(=O)N(C)[C@@H]2C(=O)O)[C@@H]1OC` ?
Solution: 0.78 to 1.56 µg/mL

Next, consider the following compound.
Exercise: Can you look up MIC on Mycolicibacterium smegmatis for `CCCCCCCCCCCC[C@@H](CC(=O)O[C@H]1CN(C)[C@@H]([C@H](O[C@@H]2O[C@H](CN)[C@@H](O)[C@H]2O)[C@H]2O[C@@H](n3ccc(=O)[nH]c3=O)[C@H](O)[C@@H]2O)C(=O)N(C)[C@@H]1C(=O)O)OC(=O)C[C@H](C)CC(=O)O[C@@H]1O[C@@H](C)[C@H](OC)[C@@H](OC)[C@H]1OC` ?
Solution: 0.78 to 1.56 µg/mL
